protein stability index: recorded values
assay: protein stability index of a GFP-peptide fusion (yeast GPS) (PSI 1-4); higher = more stable; sorted into four equal gates, so the index is relative within each strain; conditions: pdr5∆
# output: bare number, no unit

# example entries with known answers
| Sequence text | protein stability index |
| --- | --- |
| WTDPNLKSSLADVLSIL [RPN1] | 2.98 |
| EFFSTNWLSIFNDFSNI [REC8] | 2.91 |
| KSLALLGYNFDGSAIED [SNF5] | 2.99 |
| NERLEINQEKPVKLDEN [SIR4] | 3.05 |
| LDEMELHPYNSRGLFEK [YDL116W/NUP84] | 3.04 |

Task: Read off the recorded protein stability index for QKMAKAKKQNRPLPQWI [RPL39]
Result: 3.07

Task: Recall and state the measured protein stability index for ESDGRMFIEEPTRMVRV [SRP54] .
Result: 2.99

Task: Recall and state the measured protein stability index for NNLSNQLETLTGSIRHR [CSE2] .
Result: 2.98
